- System: human erythrocytes
- test-method-notes: Hemolysis assay
- Assay type: cell-based
Square brackets hold non-standard residues; d marks the D form. Peptide text beside a SMILES is read from it. Nspe = C[C@H](NCC(=O)O)c1ccccc1; Nphe = O=C(O)CNCc1ccccc1; Nlys = NCCCCNCC(=O)O
readout-name: HD10 (µM)
Give the value, in units of µM, as a plain number.

Lookup: Returns the measured HD10 for the input molecule. Input: NCCCCNCC(=O)N(CC(=O)N(CC(=O)N(CCCCN)CC(=O)N(CC(=O)N(CC(=O)N(CCCCN)CC(=O)N(CC(=O)N(CC(=O)N(CCCCN)CC(=O)N(CC(=O)N(CC(N)=O)Cc1ccccc1)Cc1ccccc1)Cc1ccccc1)Cc1ccccc1)Cc1ccccc1)Cc1ccccc1)Cc1ccccc1)Cc1ccccc1 [1achiral, H-(Nlys-Npm-Npm)4-NH2] (H-[Nlys][Nphe][Nphe][Nlys][Nphe][Nphe][Nlys][Nphe][Nphe][Nlys][Nphe][Nphe]-NH2)
Found: 180

Lookup: Repeat for the following molecule: C[C@@H](c1ccccc1)N(CC(N)=O)C(=O)CN(C(=O)CN(CCCCN)C(=O)CN(C(=O)CN(C(=O)CN(CCCCN)C(=O)CN(C(=O)CN(C(=O)CN(CCCCN)C(=O)[C@@H]1CCCN1C(=O)CN(C(=O)CNCCCCN)[C@@H](C)c1ccccc1)[C@@H](C)c1ccccc1)[C@@H](C)c1ccccc1)[C@@H](C)c1ccccc1)[C@@H](C)c1ccccc1)[C@@H](C)c1ccccc1 [1-Pro3, H-Nlys-Nspe-L-Pro-(Nlys-Nspe-Nspe)3-NH2] (H-[Nlys][Nspe]P[Nlys][Nspe][Nspe][Nlys][Nspe][Nspe][Nlys][Nspe][Nspe]-NH2)
Found: 74

Lookup: Same thing, different molecule: C[C@@H](c1ccc2ccccc2c1)N(CC(N)=O)C(=O)CN(C(=O)CN(CCCCN)C(=O)CN(C(=O)CN(C(=O)CN(CCCCN)C(=O)CN(C(=O)CN(C(=O)CN(CCCCN)C(=O)CN(C(=O)CN(C(=O)CNCCCCN)[C@@H](C)c1ccccc1)[C@@H](C)c1ccccc1)[C@@H](C)c1ccccc1)[C@@H](C)c1ccc2ccccc2c1)[C@@H](C)c1ccccc1)[C@@H](C)c1ccccc1)[C@@H](C)c1ccccc1 [1-Nsna6,12, H-(Nlys-Nspe-Nspe-Nlys-Nspe-Nsna)2-NH2]
Found: 7

Lookup: // query: C[C@H](NCC(=O)N(CC(=O)N(CCCCN)CC(=O)N(CC(=O)N(CCCCN)CC(=O)N(CC(=O)N(CCCCN)CC(=O)N(CC(=O)N(CC(=O)N(CC(=O)N(CC(=O)N(CCCCN)CC(N)=O)[C@@H](C)c1ccccc1)[C@@H](C)c1ccccc1)[C@@H](C)c1ccccc1)[C@@H](C)c1ccccc1)[C@@H](C)c1ccccc1)[C@@H](C)c1ccccc1)[C@@H](C)c1ccccc1)c1ccccc1 [1scr, H-(Nspe)2-(Nlys-Nspe)3-(Nspe)3-Nlys-NH2] (H-[Nspe][Nspe][Nlys][Nspe][Nlys][Nspe][Nlys][Nspe][Nspe][Nspe][Nspe][Nlys]-NH2)
Found: 64

Sourced from patent US20120295838A1
